- targetEntity: Retinoic acid receptor RXR-alpha (Homo sapiens)
- procedureText: qHTS assay for small molecule antagonists of retinoid X receptor alpha signaling (AID 588546);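 also: cells stimulated with 9-cis-retinoic acid as agonist; % is scaled to controls: 0 for no effect and ±100 for the full control effect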
- reportedConditions: HEK293T RXRa-UAS-bla, beta-lactamase ratio, antagonist mode
Records with an inconclusive call do not appear.
Each entry below carries its recorded max response.
valueType: max response (%)

| molecule | valueType | unit | readoutValue |
| --- | --- | --- | --- |
| CC(C)(O)C(=O)Nc1ccc([N+](=O)[O-])c(C(F)(F)F)c1 | max response | % | -2.4 |
| CC(C)(C)C(O)C(Oc1ccc(Cl)cc1)n1cncn1 (stereo not given) | max response | % | -0.566 |
| Nc1ccc(Cl)cc1 | max response | % | -9.24 |
| OCCCBr | max response | % | -5.03 |
| Clc1cnc(Oc2ccc(Oc3ncc(Cl)cc3Cl)cc2)c(Cl)c1 | max response | % | -16.8 |

Cited source: PubChem BioAssay (NCATS)
